Some compounds, each annotated with its measured inhibition at 0.01 µM.
# target under test: mu receptor (Rattus norvegicus, UniProt P33535)
# Construct: The brain tissue, rat whole brain minus cerebellum for mu was homogenized; from tissue; host or cells: brain minus cerebellum of male Sprague Dawley rats, homogenate fraction
# Sequence (P33535 whole entry): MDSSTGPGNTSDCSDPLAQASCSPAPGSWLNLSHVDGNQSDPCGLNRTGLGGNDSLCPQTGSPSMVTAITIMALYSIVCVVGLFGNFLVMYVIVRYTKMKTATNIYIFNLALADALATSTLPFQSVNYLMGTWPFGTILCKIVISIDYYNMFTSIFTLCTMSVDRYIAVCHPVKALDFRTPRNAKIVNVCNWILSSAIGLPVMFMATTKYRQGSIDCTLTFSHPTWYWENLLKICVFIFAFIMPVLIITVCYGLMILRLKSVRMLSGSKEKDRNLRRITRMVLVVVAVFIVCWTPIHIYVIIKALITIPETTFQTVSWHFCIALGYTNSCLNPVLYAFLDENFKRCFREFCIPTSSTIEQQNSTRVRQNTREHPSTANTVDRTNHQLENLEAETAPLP
# assay: Naloxone [3H] opioid receptor binding assay (mu receptor)
# Parameters: species or system rat (male Sprague Dawley)
# condition details: 20 min, pH 7.4, read-out: % displacement at 10 nM
Counter-ions that a name gives are not always drawn.
The reply should consist of the numeric value with the unit placed after it.

| compound | target under test | inhibition at 0.01 µM |
| --- | --- | --- |
| CCOC(=O)CCCC(=O)N[C@@H](CC1CCCCC1)CN1CC[C@](C)(c2cccc(O)c2)[C@H](C)C1 [Example 51] | mu receptor (Rattus norvegicus, UniProt P33535) | 73% |
| C[C@H]1CN(C[C@H](CC2CCCCC2)NC(=O)CCCC(=O)O)CC[C@@]1(C)c1cccc(O)c1 [Example 45D] | mu receptor (Rattus norvegicus, UniProt P33535) | 82% |
| C[C@H]1CN(CCN(C(=O)CCC(N)=O)C2CCCCC2)CC[C@@]1(C)c1cccc(O)c1 (relative stereo) [Example 35, monohydrochloride] | mu receptor (Rattus norvegicus, UniProt P33535) | 80% |

Query :: Give mu receptor (Rattus norvegicus, UniProt P33535) inhibition at 0.01 µM for CNC(=O)CC(=O)N(CCN1CC[C@@](C)(c2cccc(O)c2)[C@@H](C)C1)C1CCCCC1 (relative stereo) [Example 36, monohydrate]
Result :: 85%
